Molecular target: L-glutaminase present in mice brain homogenate (Glutaminase(Brain)) (Mus musculus, UniProt D3Z7P3)
Sequence (D3Z7P3 55-674): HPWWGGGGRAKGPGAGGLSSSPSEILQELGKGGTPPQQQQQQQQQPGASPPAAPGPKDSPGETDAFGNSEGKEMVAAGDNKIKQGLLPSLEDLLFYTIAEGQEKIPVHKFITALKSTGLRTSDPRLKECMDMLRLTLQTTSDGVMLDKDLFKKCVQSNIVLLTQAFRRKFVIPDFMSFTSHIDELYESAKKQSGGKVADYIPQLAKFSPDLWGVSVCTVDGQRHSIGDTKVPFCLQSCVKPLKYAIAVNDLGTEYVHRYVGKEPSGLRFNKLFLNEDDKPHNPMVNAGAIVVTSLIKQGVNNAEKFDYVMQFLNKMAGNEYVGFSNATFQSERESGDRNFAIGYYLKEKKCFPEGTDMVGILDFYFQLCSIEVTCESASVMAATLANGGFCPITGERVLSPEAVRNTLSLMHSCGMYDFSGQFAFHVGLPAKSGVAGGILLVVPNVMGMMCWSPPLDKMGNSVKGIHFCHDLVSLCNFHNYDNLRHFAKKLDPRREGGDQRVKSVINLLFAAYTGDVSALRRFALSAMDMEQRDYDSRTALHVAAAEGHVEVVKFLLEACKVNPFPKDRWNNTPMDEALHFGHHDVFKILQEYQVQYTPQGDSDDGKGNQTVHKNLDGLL
Assay: Glutaminase enzyme activity using glutaminase enzyme from mice brain/kidney homogenate (Nessler's reagent, ammonia)
Format: biochemical
Details: 0.1 μM; mice brain homogenate; read-out: Glutaminase(Brain) activity % inhibition 0.1 μM
List of inhibition at 0.1 µM values.

compound	inhibition at 0.1 µM
O=C(Cc1cccc(OC(F)(F)F)c1)Nc1ccc(CCCCc2nnc(NC(=O)Cn3nc(C(F)(F)F)cc3C(F)(F)F)s2)cn1	< 25%
CS(=O)(=O)Nc1cccc(CC(=O)Nc2nnc(CCCCc3ccc(NC(=O)Cc4cccc(OC(F)(F)F)c4)nc3F)s2)c1	25 to 50%
CS(=O)(=O)c1ccc(CC(=O)Nc2nnc(CCCCc3ccc(NC(=O)Cc4cccnc4)nc3)s2)cc1	75 to 100%
CCC(Cl)C(=O)Nc1nnc(CCCCc2ccc(NC(=O)Cc3cccc(OC(F)(F)F)c3)nc2)s1 (stereo not drawn)	< 25%

Data request: Give a short answer stating reported inhibition at 0.1 µM for O=C(Cc1cccnc1)Nc1ccc(CCCCc2nnc(NC(=O)Cc3cccc(F)c3)s2)cn1 .
Data returned: 75 to 100%

Data request: Give inhibition at 0.1 µM for the following compound: O=C(Cc1cccnc1)Nc1ccc(CCCCc2nnc(NC(=O)Cc3cccc(Cl)c3)s2)cn1
Data returned: 50 to 75%

Data request: Using known records, supply inhibition at 0.1 µM for O=C(Cc1ccccn1)Nc1nnc(CC2CCC(Cc3nnc(NC(=O)Cc4ccccn4)s3)CC2)s1 (stereo not drawn)
Data returned: < 25%

Data request: Look up inhibition at 0.1 µM of COc1ccccc1CC(=O)Nc1nnc(CCC#Cc2ccc(NC(=O)Cc3ccccc3Cl)nc2)s1 and report it.
Data returned: 25 to 50%

Data request: Using known records, supply inhibition at 0.1 µM for O=C(Cc1ccncc1)Nc1ccc(CCCCc2nnc(NC(=O)Cc3cccc(OC(F)(F)F)c3)s2)cn1
Data returned: < 25%

###

Target: UniProt:D3Z7P3
Assay: Glutaminase enzyme activity using glutaminase enzyme from mice brain/kidney homogenate (Nessler's reagent, ammonia)
Format: biochemical
Conditions: 1 μM; mice brain homogenate; read-out: Glutaminase(Brain) activity % inhibition @1 μM
Procedure: Assay 3: Determination of Glutaminase Enzyme Activity Using Glutaminase Enzyme from Mice Brain/Kidney Step 1: Preparation of Tissue Homogenates: Male Balb/c mice were administered 0.28 M ammonium chloride in drinking water for 7 days. The animals were sacrificed and brain/kidney organs collected on dry ice. […] Aim: Compounds were assessed for their ability to inhibit the enzymatic activity of L-glutaminase present in mice brain/kidney homogenate. […]
Item-by-item account of inhibition at 1 µM

Take a look at these entries with their results.
compound	inhibition at 1 µM
CS(=O)(=O)c1cccc(CC(=O)Nc2nnc(CCCCc3ccc(NC(=O)Cc4cccnc4)nc3)s2)c1	75 to 100%
O=C(Cc1cccnc1)Nc1ccc(CCCCc2nnc(NC(=O)Cc3cccc(Cl)c3)s2)cn1	75 to 100%
O=C(Cc1ccccn1)Nc1nnc(CC2CCC(Cc3nnc(NC(=O)Cc4ccccn4)s3)CC2)s1 (stereo not drawn)	25 to 50%
CS(=O)(=O)Nc1cccc(CC(=O)Nc2nnc(CCCCc3ccc(NC(=O)Cc4cccc(OC(F)(F)F)c4)nc3F)s2)c1	75 to 100%
O=C(Cc1cccnc1)Nc1ccc(CCCCc2nnc(NC(=O)Cc3cccc(OC(F)(F)F)c3)s2)cn1	75 to 100%
O=C(Cc1cccnc1)Nc1ccc(CCCCc2nnc(NC(=O)Cc3cccnc3)s2)cn1	75 to 100%

With those in mind, consider the next compound.
Data request: # assay system UniProt:D3Z7P3: give inhibition at 1 µM of CC(Cl)C(=O)Nc1nnc(CCCCc2ccc(NC(=O)Cc3cccc(OC(F)(F)F)c3)nc2)s1 (stereo not drawn)
Data returned: < 25%

###

Reported inhibition at 1 µM by item:
Target: L-glutaminase present in mice brain homogenate (Glutaminase(Brain)) (Mus musculus)
Test: Glutaminase enzyme activity using glutaminase enzyme from mice brain/kidney homogenate (Nessler's reagent, ammonia)
Assay type: biochemical
Conditions: 1 μM; mice brain homogenate; read-out: Glutaminase(Brain) activity % inhibition @1 μM

Guide cases for inhibition at 1 µM, answers given:
compound	inhibition at 1 µM
Cc1ccc(F)c(C(=O)Nc2nnc(CCCCc3ccc(NC(=O)Cc4cccc(OC(F)(F)F)c4)nc3)s2)n1	< 25%
CS(=O)(=O)Nc1ccc(CC(=O)Nc2nnc(CCCCc3ccc(NC(=O)Cc4cccc(OC(F)(F)F)c4)nc3)s2)cc1	75 to 100%
O=C(Cc1cccnc1)Nc1nnc(CC2CCC(Cc3nnc(NC(=O)Cc4cccnc4)s3)CC2)s1 (stereo not shown)	25 to 50%

Data request: Provide only the value of recorded inhibition at 1 µM for O=C(Cc1cccc(OC(F)(F)F)c1)Nc1ccc(CCCCc2nnc(NC(=O)Cc3cccnc3)s2)c(F)n1
Data returned: 75 to 100%

###

measurementName: melting point

Data request: Tell us which melting point value is on record for O=C(Cc1cccc(OC(F)(F)F)c1)Nc1nnc(CC2CCC(Cc3nnc(NC(=O)Cc4ccccn4)s3)CC2)s1 (stereo not shown)
Data returned: 278 to 280 °C

###

Here the recorded inhibition at 1 µM is given for each entry.
Biological target: UniProtKB D3Z7P3
Test: Glutaminase enzyme activity using glutaminase enzyme from mice brain/kidney homogenate (Nessler's reagent, ammonia)
Type: biochemical
Settings: read-out: Glutaminase(Brain) activity % inhibition @1 μM
Structures can show the parent of a compound that is named as a salt.

Some compounds with known inhibition at 1 µM results, for comparison:
compound	targetOrTestSystem	inhibition at 1 µM
O=C(Cc1cccc(OC(F)(F)F)c1)Nc1ccc(CCCCc2nnc(NC(=O)Cc3cccc(C4CCNCC4)c3)s2)cn1 [Example-36, hydrochloride]	UniProtKB D3Z7P3	25 to 50%
O=C(Cc1cccc(OC(F)(F)F)c1)Nc1cnc(CCCCc2nnc(NC(=O)Cc3ccccn3)s2)cn1 [Example-6]	UniProtKB D3Z7P3	25 to 50%
O=C(Cc1cccc(OC(F)(F)F)c1)Nc1ccc(CCCCc2nnc(NC(=O)Cc3ccccn3)s2)cn1 [Example 3]	UniProtKB D3Z7P3	75 to 100%
O=C(Cc1cccc(OC(F)(F)F)c1)Nc1ccc(CC2CC(c3nnc(NC(=O)Cc4ccccn4)s3)C2)nn1 (centres unmarked) [Example-110]	UniProtKB D3Z7P3	75 to 100%

Data request: Return inhibition at 1 µM for the following compound: O=C(Cc1cccc(OC(F)(F)F)c1)Nc1ccc(CCCCc2nnc(NC(=O)Cc3ccc(C4CCNCC4)cc3)s2)cn1 [Example-34, hydrochloride]
Data returned: 25 to 50%

###

measurementName: melting point

compound	melting point
O=C(Cc1cccnc1)Nc1nnc(CC2CCC(Cc3nnc(NC(=O)Cc4cccnc4)s3)CC2)s1 (stereo not shown)	268 to 270 °C
CC(Cl)C(=O)Nc1nnc(CCCCc2ccc(NC(=O)Cc3cccc(OC(F)(F)F)c3)nc2)s1 (stereo not shown)	132 to 134 °C
O=C(Cc1ccccn1)Nc1ccc(CCCCc2nnc(NC(=O)Cc3cccc(OC(F)(F)F)c3)s2)cn1	176 to 178 °C

Now turn to the next compound.
Data request: Quick one: give measured melting point for O=C(Cc1cccc(OC(F)(F)F)c1)Nc1ccc(CCCCc2nnc(NC(=O)Cn3cccn3)s2)cn1
Data returned: 174 to 178 °C

###

Consider the following compounds and their measured inhibition at 0.1 µM readings.
Target: UniProtKB D3Z7P3
Sequence (D3Z7P3 55-674): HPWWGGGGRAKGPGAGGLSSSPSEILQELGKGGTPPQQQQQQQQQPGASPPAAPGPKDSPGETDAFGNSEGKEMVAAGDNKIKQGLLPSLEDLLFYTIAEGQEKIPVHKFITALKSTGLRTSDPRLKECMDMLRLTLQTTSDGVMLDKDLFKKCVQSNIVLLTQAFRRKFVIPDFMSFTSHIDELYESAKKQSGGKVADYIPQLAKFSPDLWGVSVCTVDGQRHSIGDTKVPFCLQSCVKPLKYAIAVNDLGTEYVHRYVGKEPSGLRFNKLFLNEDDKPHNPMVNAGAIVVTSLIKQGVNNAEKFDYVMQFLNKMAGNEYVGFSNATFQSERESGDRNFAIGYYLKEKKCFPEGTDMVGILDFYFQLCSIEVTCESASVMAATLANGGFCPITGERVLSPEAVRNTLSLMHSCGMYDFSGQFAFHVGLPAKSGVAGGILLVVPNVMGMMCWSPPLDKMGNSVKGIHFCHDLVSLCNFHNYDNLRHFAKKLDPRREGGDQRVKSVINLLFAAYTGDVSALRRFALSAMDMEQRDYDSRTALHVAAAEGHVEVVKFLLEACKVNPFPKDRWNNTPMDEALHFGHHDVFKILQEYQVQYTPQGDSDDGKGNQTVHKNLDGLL
Assay: Glutaminase enzyme activity using glutaminase enzyme from mice brain/kidney homogenate (Nessler's reagent, ammonia)
Type: biochemical
Settings: 0.1 μM; mice brain homogenate; read-out: Glutaminase(Brain) activity % inhibition 0.1 μM

compound	inhibition at 0.1 µM
O=C(Cc1cccc(OC(F)(F)F)c1)Nc1nnc(CC2CCC(Cc3nnc(NC(=O)Cc4cccc(OC(F)(F)F)c4)s3)CC2)s1 (stereo not shown) [Example-104]	< 25%
O=C(Cc1cccnc1)Nc1ccc(CCCCc2nnc(NC(=O)Cc3ccccc3Cl)s2)cn1 [Example-12]	75 to 100%
O=C(Cc1cccc(OC(F)(F)F)c1)Nc1ccc(CC2CC(c3nnc(NC(=O)Cc4ccccn4)s3)C2)cn1 (stereo not shown) [Example-107]	25 to 50%

Data request: Indicate the recorded inhibition at 0.1 µM value for this compound: Cc1nc(NC(=O)Cc2cccc(OC(F)(F)F)c2)ccc1CCCCc1nnc(NC(=O)Cc2ccccn2)s1 [Example-9]
Data returned: < 25%

Data request: Please give measured inhibition at 0.1 µM of the following entry: O=C(Cc1ccccn1)Nc1ccc(CCCCc2nnc(NC(=O)Cc3cccc(OC(F)(F)F)c3)s2)cn1 [Example-8]
Data returned: 25 to 50%

Data request: // fetch inhibition at 0.1 µM given entry O=C(Cc1cccc(OC(F)(F)F)c1)Nc1ccc(CC2CC(c3nnc(NC(=O)Cc4cccnc4)s3)C2)cn1 (stereo not shown) [Example-108]
Data returned: 75 to 100%

Data request: Determine its reported inhibition at 0.1 µM: O=C(Cc1ccccc1Cl)Nc1ccc(CCCCc2nnc(NC(=O)Cc3cccnc3)s2)cn1 [Example-26]
Data returned: 50 to 75%
